# TARGET ENTITY: ΔF508-CFTR (Homo sapiens, UniProt P13569, DEL508-508)
# Construct: host or cells: CFBE41o-, doxycycline-inducible
# Sequence (P13569 with tags, fused parts or gaps DEL508-508): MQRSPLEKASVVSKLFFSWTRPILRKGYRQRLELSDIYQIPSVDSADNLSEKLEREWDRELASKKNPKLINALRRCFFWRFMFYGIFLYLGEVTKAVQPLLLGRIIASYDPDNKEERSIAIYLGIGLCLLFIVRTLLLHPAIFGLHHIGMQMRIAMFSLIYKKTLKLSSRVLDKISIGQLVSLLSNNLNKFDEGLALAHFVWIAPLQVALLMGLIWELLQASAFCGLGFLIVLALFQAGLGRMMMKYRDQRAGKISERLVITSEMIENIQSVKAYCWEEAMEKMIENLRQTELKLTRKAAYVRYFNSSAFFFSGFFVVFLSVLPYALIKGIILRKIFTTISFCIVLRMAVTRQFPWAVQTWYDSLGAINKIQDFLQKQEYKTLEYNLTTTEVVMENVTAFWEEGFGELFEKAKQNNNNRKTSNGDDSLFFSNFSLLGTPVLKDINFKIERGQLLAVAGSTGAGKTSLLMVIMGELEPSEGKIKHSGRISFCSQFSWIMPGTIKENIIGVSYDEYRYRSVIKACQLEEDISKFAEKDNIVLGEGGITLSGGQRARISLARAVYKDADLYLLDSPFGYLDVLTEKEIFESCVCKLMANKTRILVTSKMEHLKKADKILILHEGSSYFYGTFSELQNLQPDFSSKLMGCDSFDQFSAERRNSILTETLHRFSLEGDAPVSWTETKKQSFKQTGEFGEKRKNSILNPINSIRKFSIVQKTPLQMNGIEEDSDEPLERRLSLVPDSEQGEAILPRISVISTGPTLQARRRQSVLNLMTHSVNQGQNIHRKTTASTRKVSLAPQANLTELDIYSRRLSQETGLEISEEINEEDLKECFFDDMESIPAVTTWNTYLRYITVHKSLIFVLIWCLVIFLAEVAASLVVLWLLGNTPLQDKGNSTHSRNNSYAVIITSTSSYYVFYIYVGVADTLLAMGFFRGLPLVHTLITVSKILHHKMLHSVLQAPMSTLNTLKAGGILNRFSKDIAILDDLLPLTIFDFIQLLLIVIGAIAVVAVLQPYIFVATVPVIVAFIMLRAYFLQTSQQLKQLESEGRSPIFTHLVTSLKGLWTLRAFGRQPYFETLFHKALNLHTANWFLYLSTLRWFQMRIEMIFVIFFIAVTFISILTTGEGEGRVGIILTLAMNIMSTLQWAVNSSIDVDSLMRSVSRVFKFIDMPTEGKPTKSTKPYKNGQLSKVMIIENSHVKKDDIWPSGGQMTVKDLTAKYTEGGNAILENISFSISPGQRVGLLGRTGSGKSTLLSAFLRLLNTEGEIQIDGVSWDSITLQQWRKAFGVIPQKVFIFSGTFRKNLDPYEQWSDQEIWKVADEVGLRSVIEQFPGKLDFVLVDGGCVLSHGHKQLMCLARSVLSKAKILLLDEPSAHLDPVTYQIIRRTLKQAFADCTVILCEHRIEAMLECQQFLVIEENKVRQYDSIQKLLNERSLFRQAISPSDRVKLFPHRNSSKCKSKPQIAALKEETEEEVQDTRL
# TEST PROTOCOL: CFTR cell surface levels using HRP-tagged ΔF508-CFTR expressing CFBE cells, intrinsic corrector capacity
# Type: cell-based
# APPLIED CONDITIONS: HRP-tagged ΔF508-CFTR CFBE41o- cells, compounds alone (intrinsic corrector capacity), 20 hours at 33° C.; read-out: EC50
TEST READOUT: pEC50
Note on pEC50: it is the negative log10 of concentration, concentration in mol/L.

Worked cases, answers included:
Requested read-out: pEC50. Entry: CC(C)c1nn(C2CCCCC2)c2nc(C(=O)O)cc(-c3ccc(N4CCC(C#N)CC4)cc3)c12
5.95

Requested read-out: pEC50. Entry: CC(C)c1nn(-c2cccc(N(C)C)c2)c2nc(C(=O)O)cc(N3CCC(C(F)(F)F)C3)c12 (stereo not shown)
6.16

More entries:
Requested read-out: pEC50. Entry: CC(C)(C)OC(=O)N1CCCC1c1nn(-c2ccccc2)c2nc(C(=O)O)cc(-c3ccc(N4CCOCC4)nc3)c12 (stereo not shown)
6.15

Requested read-out: pEC50. Entry: Cc1nn(-c2ccccc2)c2nc(C(=O)O)cc(N3CC4(CCOCC4)C3)c12
5.60

The origin of these recorded values is patent US9796711B2.
